measurementTarget: Human P45017α (Homo sapiens)
Construct: Human testicular microsomes were prepared from human testes; from tissue; host or cells: human testes (untreated prostatic cancer patients undergoing orchidectomy), microsomal fraction
Sequence (P05093 1-508): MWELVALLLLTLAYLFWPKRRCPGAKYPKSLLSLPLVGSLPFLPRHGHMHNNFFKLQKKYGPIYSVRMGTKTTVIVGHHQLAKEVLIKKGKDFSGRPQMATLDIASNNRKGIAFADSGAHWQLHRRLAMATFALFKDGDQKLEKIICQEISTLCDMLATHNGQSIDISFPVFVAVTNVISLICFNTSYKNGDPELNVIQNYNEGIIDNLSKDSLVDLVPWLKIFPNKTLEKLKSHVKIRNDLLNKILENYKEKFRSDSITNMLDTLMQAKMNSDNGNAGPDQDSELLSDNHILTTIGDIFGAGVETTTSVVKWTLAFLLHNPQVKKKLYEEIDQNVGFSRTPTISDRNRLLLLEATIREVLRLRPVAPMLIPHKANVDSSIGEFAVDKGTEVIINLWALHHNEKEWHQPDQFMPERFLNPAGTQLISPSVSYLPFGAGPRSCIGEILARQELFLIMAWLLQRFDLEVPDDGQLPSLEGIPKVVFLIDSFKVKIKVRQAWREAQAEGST
runDescription: Inhibition of human testicular microsomal P45017α (lyase activity, release of C3H3COOH from [21-3H3]-17α-hydroxypregnenolone)
Assay type: biochemical
measurementSetup: human testicular microsomes
measuredMetric: Inhibition of human P45017α, in words

Known results for compounds:
• C[C@]12CC[C@H](O)CC1=CC[C@@H]1[C@@H]2CC[C@]2(C)C(n3cnnn3)=CC[C@@H]12 = non-inhibitory
• C[C@]12CCC(=O)C=C1CC[C@@H]1[C@@H]2CC[C@]2(C)C(n3ccnc3)=CC[C@@H]12 = powerful inhibitors
• C[C@]12CC[C@H](O)CC1=CC[C@@H]1[C@@H]2CC[C@]2(C)C(n3ncnn3)=CC[C@@H]12 = non-inhibitory
• C[C@]12CCC(=O)C=C1CC[C@@H]1[C@@H]2CC[C@]2(C)C(n3cncn3)=CC[C@@H]12 = powerful inhibitors

What Inhibition of human P45017α, in words value was documented for this compound, `C[C@]12CC[C@H](O)CC1=CC[C@@H]1[C@@H]2CC[C@]2(C)C(n3nccn3)=CC[C@@H]12` ?
non-inhibitory

What Inhibition of human P45017α, in words value was documented for this compound, `C[C@]12CCC(=O)C=C1CC[C@@H]1[C@@H]2CC[C@]2(C)C(n3ccnn3)=CC[C@@H]12` ?
powerful inhibitors

====

measurementTarget: human prostate 5α-reductase (Homo sapiens, UniProt P31213)
Construct: The enzymatic reactions were initiated by addition of human BPH microsomes; from tissue; host or cells: human benign prostatic hyperplasia (BPH) tissue, microsomal fraction
Sequence (P31213 whole entry): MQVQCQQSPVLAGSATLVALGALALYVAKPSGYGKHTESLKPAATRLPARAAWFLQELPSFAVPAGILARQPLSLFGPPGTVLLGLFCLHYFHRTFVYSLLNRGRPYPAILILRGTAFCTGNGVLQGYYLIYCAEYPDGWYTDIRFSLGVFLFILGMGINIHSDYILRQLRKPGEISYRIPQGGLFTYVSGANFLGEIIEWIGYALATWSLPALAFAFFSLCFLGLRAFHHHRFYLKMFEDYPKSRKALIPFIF
runDescription: Inhibition of human prostate 5α-reductase in BPH microsomes (conversion of [7-3H]-testosterone to DHT)
Assay type: biochemical
measurementSetup: human prostate enzyme
Protocol: […] The ethanol was evaporated to dryness under a gentle stream of air. […] The extracts were analyzed for ^3H and ^14C using a liquid scintillation counter. The percentage conversion of [7-^3H]-testosterone to [^3H]-dihydrotestosterone was calculated and used to determine 5α-reductase activity.
measuredMetric: Inhibition of 5α-reductase, in words

• C[C@]12CCC(=O)C=C1CC[C@@H]1[C@@H]2CC[C@]2(C)C(n3ccnn3)=CC[C@@H]12 = potent inhibitors
• C[C@]12CCC(=O)C=C1CC[C@@H]1[C@@H]2CC[C@]2(C)C(n3ccnc3)=CC[C@@H]12 = potent inhibitors
• C[C@]12CCC(=O)C=C1CC[C@@H]1[C@@H]2CC[C@]2(C)C(n3cncn3)=CC[C@@H]12 = potent inhibitors
